- Tested on: RARa homodimer (NR concentration 270 nM)
- Measurement protocol: PBM binding z-score (relative to random genomic background probes); higher = stronger binding; sequences stand for … in GC…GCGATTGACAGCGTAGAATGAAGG
Would you mind labelling by PBM binding z-score? At or over 0.2 is met, under is not met.

// known answers, use as guide
Input: Please indicate if the recorded PBM binding z-score for "CAAACTAGGTCGAGAGGTCAAAGTCCGCTTCCCG" meets or exceeds 0.2.
Output: met

Input: Answer whether PBM binding z-score of "TCTATTAGTTGAAGGGCAACCCACGAGTCCGTTT" is greater than or equal to 0.2.
Output: met

Input: Confirm if PBM binding z-score reported for the sequence "CGACCTAGGTCATTGACAGGACAGTGAATAGTAA" is 0.2 or above.
Output: not met

Input: Textbook exercise: given the entry "AGACCAAGGTGATCGTGAGGTCGTTGATACTAAC" , state whether its PBM binding z-score is greater than or equal to 0.2.
Output: not met

Input: Quick check, PBM binding z-score >= 0.2? "GCAGACAGGTGAAACGCAGTTAACTCAGGGTGGC"
Output: not met

# evaluate next
Input: Please check the record "AGAATGAGGTTACCAAAGATCATGGAAACGCTTG" and state if its PBM binding z-score is at or above 0.2.
Output: not met
